Measured values drawn from paper PMC7356578 for this set.

Form field: kapp (apparent second-order rate constant) (one value per entry).
Target: T1, Recombinant human tissue kallikrein 1 (KLK1), wild type (human, UniProt P06870 25-262)
T1 construct: tissue kallikrein 1 (KLK1), human, residues 25-262; Vector pE-SUMO3; also called kallikrein-related peptidase 1
Experiment: kinetics of protease inhibition (discontinuous assay); pseudo-first-order; 10 nM protease with 100-500 nM kallistatin variant, PBS, 0.1% PEG 8000, 22 ± 1 °C; apparent second-order rate constant kapp from kobs; k2 = kapp × SI
Conditions: both partners purified
Give just the number in M⁻¹ s⁻¹; leave the unit off.

Here are 2 binders together with their reported answers.
| binder | measured |
| --- | --- |
| Recombinant human kallistatin (rKAL), wild type (natural protein, UniProt P29622 45-427, looked up, kallistatin (SERPINA4), human, residues 45-427; Vector pE-SUMO3; purified on a HisTrap column, so the SUMO3 fusion probably carries a His tag that leaves with SUMO3; During storage or crystallisation part of the protein is cleaved between F387 and F388 (P2-P1) by an unknown protease; the crystal structures hold this cleaved form; also called rKAL-WT; SERPINA4; source: E. coli BL21 (DE3), purified …) GSPSLKIAPANADFAFRFYYLIASETPGKNIFFSPLSISAAYAMLSLGACSHSRSQILEGLGFNLTELSESDVHRGFQHLLHTLNLPGHGLETRVGSALFLSHNLKFLAKFLNDTMAVYEAKLFHTNFYDTVGTIQLINDHVKKETRGKIVDLVSELKKDVLMVLVNYIYFKALWEKPFISSRTTPKDFYVDENTTVRVPMMLQDQEHHWYLHDRYLPCSVLRMDYKGDATVFFILPNQGKMREIEEVLTPEMLMRWNNLLRKRNFYKKLELHLPKFSISGSYVLDQILPRLGFTDLFSKWADLSGITKQQKLEASKSFHKATLDVDEAGTEAAAATSFAIKFFSAQTNRHILRFNRPFLVVIFSTSTQSVLFLGKVVDPTKP | 2400 |
| rKAL-R394D (natural protein, human, UniProt P29622 45-427, looked up, kallistatin (SERPINA4), human, residues 45-427; source: E. coli BL21 (DE3), purified (HisTrap FF crude, SENP2 digestion, HiTrap SP)) GSPSLKIAPANADFAFRFYYLIASETPGKNIFFSPLSISAAYAMLSLGACSHSRSQILEGLGFNLTELSESDVHRGFQHLLHTLNLPGHGLETRVGSALFLSHNLKFLAKFLNDTMAVYEAKLFHTNFYDTVGTIQLINDHVKKETRGKIVDLVSELKKDVLMVLVNYIYFKALWEKPFISSRTTPKDFYVDENTTVRVPMMLQDQEHHWYLHDRYLPCSVLRMDYKGDATVFFILPNQGKMREIEEVLTPEMLMRWNNLLRKRNFYKKLELHLPKFSISGSYVLDQILPRLGFTDLFSKWADLSGITKQQKLEASKSFHKATLDVDEAGTEAAAATSFAIKFFSAQTNDHILRFNRPFLVVIFSTSTQSVLFLGKVVDPTKP | 1000 |

Task: What value of kapp (apparent second-order rate constant) has been recorded for this entry: rKAL-312/313D (natural protein, human, UniProt P29622 45-427, looked up, kallistatin (SERPINA4), human, residues 45-427; double mutant of K312 and K313 to Asp; also called rKAL-K312/313D; source: E. coli BL21 (DE3), purified (HisTrap FF crude, SENP2 digestion, HiTrap SP)) GSPSLKIAPANADFAFRFYYLIASETPGKNIFFSPLSISAAYAMLSLGACSHSRSQILEGLGFNLTELSESDVHRGFQHLLHTLNLPGHGLETRVGSALFLSHNLKFLAKFLNDTMAVYEAKLFHTNFYDTVGTIQLINDHVKKETRGKIVDLVSELKKDVLMVLVNYIYFKALWEKPFISSRTTPKDFYVDENTTVRVPMMLQDQEHHWYLHDRYLPCSVLRMDYKGDATVFFILPNQGKMREIEEVLTPEMLMRWNNLLRKRNFYDDLELHLPKFSISGSYVLDQILPRLGFTDLFSKWADLSGITKQQKLEASKSFHKATLDVDEAGTEAAAATSFAIKFFSAQTNRHILRFNRPFLVVIFSTSTQSVLFLGKVVDPTKP
Output: 1000

Task: What value of kapp (apparent second-order rate constant) has been recorded for this entry: rKAL-R259D (natural protein, human, UniProt P29622 45-427, looked up, kallistatin (SERPINA4), human, residues 45-427; source: E. coli BL21 (DE3), purified (HisTrap FF crude, SENP2 digestion, HiTrap SP)) GSPSLKIAPANADFAFRFYYLIASETPGKNIFFSPLSISAAYAMLSLGACSHSRSQILEGLGFNLTELSESDVHRGFQHLLHTLNLPGHGLETRVGSALFLSHNLKFLAKFLNDTMAVYEAKLFHTNFYDTVGTIQLINDHVKKETRGKIVDLVSELKKDVLMVLVNYIYFKALWEKPFISSRTTPKDFYVDENTTVRVPMMLQDQEHHWYLHDDYLPCSVLRMDYKGDATVFFILPNQGKMREIEEVLTPEMLMRWNNLLRKRNFYKKLELHLPKFSISGSYVLDQILPRLGFTDLFSKWADLSGITKQQKLEASKSFHKATLDVDEAGTEAAAATSFAIKFFSAQTNRHILRFNRPFLVVIFSTSTQSVLFLGKVVDPTKP
Output: 2200
